Hey, just so you know, these numbers are from the NIST ThermoML archive (doi:10.1021/je900502s).

# testContext: 293.15 K, Pendant drop shape
Classify by measured surface tension liquid-gas: True if it is equal to or exceeds 30 mN/m, False if it is smaller.

CCCCCCCC[N+](C)(CCCCCCCC)CCCCCCCC.[Cl-] [N-methyl-N,N-dioctyl-1-octanaminium chloride]: False
CCCCCCN(CCCCCC)C(N(C)C)=[N+](CCCCCC)CCCCCC.N#C[N-]C#N: False

Dear colleague, could you confirm whether CCCCn1cc[n+](C)c1.F[B-](F)(F)F [1-butyl-3-methylimidazolium tetrafluoroborate] has surface tension liquid-gas at or above 30 mN/m?
True

Dear colleague, could you confirm whether Cn1cc[n+](CCO)c1.N#C[N-]C#N [3-(2-hydroxyethyl)-1-methyl-1H-imidazol-3-ium dicyanoazanide] has surface tension liquid-gas at or above 30 mN/m?
True

Dear colleague, could you confirm whether CCCCCCCCn1cc[n+](C)c1.N#C[N-]C#N [3-methyl-1-octylimidazolium dicyanamide] has surface tension liquid-gas at or above 30 mN/m?
True
